System Name: caspase-3 (Homo sapiens, UniProt P42574)
Construct: purchased R&D systems, USA
Sequence (P42574 29-175 limits assumed): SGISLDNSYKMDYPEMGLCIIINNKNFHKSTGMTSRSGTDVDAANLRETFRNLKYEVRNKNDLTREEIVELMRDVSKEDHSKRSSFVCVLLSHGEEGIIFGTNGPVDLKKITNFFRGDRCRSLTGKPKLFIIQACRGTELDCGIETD
Sequence (P42574 176-277 limits assumed): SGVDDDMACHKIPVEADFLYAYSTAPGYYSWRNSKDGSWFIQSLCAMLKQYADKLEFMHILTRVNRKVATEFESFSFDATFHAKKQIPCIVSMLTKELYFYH
Test Name: Kinetic assay of fluorogenic substrates with caspase-3
Format: biochemical
Test Settings: substrate range 0.1–8 μM; enzyme 20 nM (1–9) or 15 nM (10–14); fluorescence λEx/Em 485/528 nm; initial rate 0–5 min; Michaelis-Menten; n = 3
Non-standard residues stand in square brackets, D forms with d. *: point of attachment. MethylRed = CN(C)c1ccc(/N=N/c2ccccc2C(=O)*)cc1; FAM = 5(6)-carboxyfluorescein; peptoid = not defined here; Ahx = NCCCCCC(=O)O
Km: recorded values
// return the numeric value with its unit appended

Examples from the recorded data:
substrate 27: FAM-Ahx-Asp-Leu-Pro-Asp-Lys(MR)-Ahx, conjugated to the cell penetrating peptoid at the C-terminus ({FAM-Ahx}-DLPDK(MethylRed)-{Ahx-peptoid}; reading uncertain; also: printed as FAM-Ahx-Asp-Leu-Pro-Asp-Lys(MR)-Ahx)    1.1 µM
substrate 11: FRET fluorogenic substrate, recognition Asp-Ala-Pro-Asp, quencher MR, C-terminal peptoid ({FAM-Ahx}-DAPD[Ahx]K(MethylRed)-{peptoid-NH2}; reading uncertain; also: printed as Asp-Ala-Pro-Asp)    0.4 µM
substrate 14: FRET fluorogenic substrate, recognition Asp-Val-Pro-Asp, quencher MR, C-terminal peptoid ({FAM-Ahx}-DVPD[Ahx]K(MethylRed)-{peptoid-NH2}; reading uncertain; also: printed as Asp-Val-Pro-Asp)    0.2 µM

Let us move to another entry and its Km.
QUERY: GET /values?readout=Km&system=caspase-3 (Homo sapiens, UniProt P42574)&item= substrate 12: FRET fluorogenic substrate, recognition Asp-Leu-Pro-Asp, quencher MR, C-terminal peptoid ({FAM-Ahx}-DLPD[Ahx]K(MethylRed)-{peptoid-NH2}; reading uncertain; also: printed as Asp-Leu-Pro-Asp)
RESULT: 0.2 µM

Data credit: paper PMC4864350
